- TARGET SYSTEM: histamine H2 receptor in atria (Cavia porcellus)
- Construct: right atrium was isolated; from tissue; host or cells: isolated right atrium of male Hartley guinea pig
- RUN DESCRIPTION: Histamine H2 receptor inhibition effect by isolated guinea pig right atrium preparation (negative chronotropic effect)
- Type: cell-based, Male Hartley Guinea Pig
- SETUP CONDITIONS: 5×10^-6 mol sample 3 minutes prior to histamine, mean of five, read-out: inhibitory effect of histamine H2 receptor in atria (pA2 value) (converted)
READOUT KIND: Kb (µM)

COMPOUND: CN(C)Cc1nc2cc(CSCCC(N)=NC(N)=O)ccc2[nH]1 [Example 129]
OBSERVED RESULT: 0.759

COMPOUND: CN(C)Cc1nc2cc(OCCCNc3nnc(Cc4cccnc4)c(=O)[nH]3)ccc2[nH]1 [Example 83]
OBSERVED RESULT: 4.07

COMPOUND: CN(C)Cc1nc2cc(OCCCNc3ncc(Cc4cccnc4)c(=O)[nH]3)ccc2[nH]1 [Example 66]
OBSERVED RESULT: 1.95

COMPOUND: CCNc1n[s+]([O-])nc1NCCCOc1ccc2[nH]c(CN(C)C)nc2c1 (centres unmarked) [Example 102]
OBSERVED RESULT: 2.19

COMPOUND: CNC(=C[N+](=O)[O-])NCCCCOc1ccc2[nH]c(CN3CCCCC3)nc2c1 [Example 30]
OBSERVED RESULT: 1.38

COMPOUND: CN(C)Cc1nc2cc(CSCCNc3nccc(=O)[nH]3)ccc2[nH]1 [Example 72]
OBSERVED RESULT: 0.851

COMPOUND: CN(C)Cc1nc2cc(CSCCNC3=NS(=O)(=O)N=C3N)ccc2[nH]1 [Example 104]
OBSERVED RESULT: 1.95

COMPOUND: CN(C)Cc1nc2cc(OCCCNc3ncc(CN(C)C)c(=O)[nH]3)ccc2[nH]1 [Example 60]
OBSERVED RESULT: 3.55

----------
The following compounds are listed with their measured LD50 at 168 h values.
- RUN DESCRIPTION: Acute oral toxicity test in mice (LD50, Litchfield-Wilcoxon)
- SETUP CONDITIONS: mouse, in vivo, oral, groups of 5, 7 days observation

COMPOUND: CN(C)Cc1nc2cc(CSCCNc3n[s+]([O-])nc3N)ccc2[nH]1 (centres unmarked)
OUTPUT UNIT: mg/kg
INEQUALITY OPERATOR: >
LD50 at 168 h: 4000
--
COMPOUND: CN(C)Cc1cccc(Cc2cnc(NCCCOc3ccc4[nH]c(CN(C)C)nc4c3)[nH]c2=O)c1
OUTPUT UNIT: mg/kg
INEQUALITY OPERATOR: =
LD50 at 168 h: 2800

----------
- TARGET SYSTEM: histamine H2 receptor in atria (Cavia porcellus, UniProt P47747)
- Construct: right atrium was isolated; from tissue; host or cells: isolated right atrium of male Hartley guinea pig
- Sequence (P47747 whole entry): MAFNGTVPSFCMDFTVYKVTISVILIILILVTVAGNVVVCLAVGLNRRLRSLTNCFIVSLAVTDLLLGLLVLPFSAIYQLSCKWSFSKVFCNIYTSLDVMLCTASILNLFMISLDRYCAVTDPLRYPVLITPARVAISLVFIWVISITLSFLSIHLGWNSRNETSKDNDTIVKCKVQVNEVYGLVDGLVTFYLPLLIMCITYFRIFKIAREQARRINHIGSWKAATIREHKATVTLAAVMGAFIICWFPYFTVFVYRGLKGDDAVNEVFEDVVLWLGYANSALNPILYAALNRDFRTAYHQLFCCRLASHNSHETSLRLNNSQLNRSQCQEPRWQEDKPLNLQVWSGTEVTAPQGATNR
- RUN DESCRIPTION: Histamine H2 receptor inhibition effect by isolated guinea pig right atrium preparation (negative chronotropic effect)
- Type: cell-based, Male Hartley Guinea Pig
- SETUP CONDITIONS: 5×10^-6 mol sample 3 minutes prior to histamine, mean of five, read-out: inhibitory effect of histamine H2 receptor in atria (pA2 value) (converted)
READOUT KIND: Kb (nM)

COMPOUND: CN(C)Cc1nc2cc(CSCCC(N)=NS(N)(=O)=O)ccc2[nH]1 [Example 121]
READOUT KIND: Kb
OBSERVED RESULT: 562
--
COMPOUND: CNC(=C[N+](=O)[O-])NCCOc1ccc2[nH]c(CN3CCCC3)nc2c1 [Example 25]
READOUT KIND: Kb
OBSERVED RESULT: 631
--
COMPOUND: CNC(=C[N+](=O)[O-])NCCCOc1ccc2[nH]c(CN3CCCC3)nc2c1 [Example 28]
READOUT KIND: Kb
OBSERVED RESULT: 2450
--
COMPOUND: CNC(=NC#N)NCCCOc1ccc2[nH]c(CN3CCCCC3)nc2c1 [Example 5]
READOUT KIND: Kb
OBSERVED RESULT: 1380
--
COMPOUND: CN(C)Cc1nc2cc(CSCCNc3n[s+]([O-])nc3N)ccc2[nH]1 (centres unmarked) [Example 103]
READOUT KIND: Kb
OBSERVED RESULT: 575

----------
- Test system: gastric mucus secretion
- RUN DESCRIPTION: Effect on gastric mucus secretion in rats (alcian blue binding)
- Type: in vivo, Wistar male rats
- SETUP CONDITIONS: vs control (0.5% CMC); 10 mg/kg × 2/day orally for 7 days; * significant at 5%, ** at 1%

COMPOUND: CN(C)Cc1nc2cc(CSCCNc3nc(N)nn3C)ccc2[nH]1 [Example 97]
% Change (Alcian blue binding): +37.4%
//
COMPOUND: CNC(=NC#N)NCCCOc1ccc2[nH]c(NC(=N)N)nc2c1 [Example 8]
% Change (Alcian blue binding): +52.5%
//
COMPOUND: CN(C)Cc1nc2cc(CSCCNc3n[s+]([O-])nc3N)ccc2[nH]1 (stereo not shown) [Example 103]
% Change (Alcian blue binding): +14.8%
//
COMPOUND: CN(C)Cc1cccc(Cc2cnc(NCCSCc3ccc4[nH]c(CN(C)C)nc4c3)[nH]c2=O)c1 [Example 78]
% Change (Alcian blue binding): +24.6%

----------
The following molecules are listed with their measured Kb values.
- TARGET SYSTEM: histamine H2 receptor in atria (Cavia porcellus, UniProt P47747)
- Construct: right atrium was isolated; from tissue; host or cells: isolated right atrium of male Hartley guinea pig
- RUN DESCRIPTION: Histamine H2 receptor inhibition effect by isolated guinea pig right atrium preparation (negative chronotropic effect)
- Format: cell-based, Male Hartley Guinea Pig
- SETUP CONDITIONS: 5×10^-6 mol sample 3 minutes prior to histamine, mean of five, read-out: inhibitory effect of histamine H2 receptor in atria (pA2 value) (converted)

MOLECULE: CN(C)Cc1nc2cc(OCCCCNc3nc(N)nn3C)ccc2[nH]1
OUTPUT UNIT: µM
Kb: 5.5
--
MOLECULE: Nc1n[s+]([O-])nc1NCCCOc1ccc2[nH]c(CN3CCCCC3)nc2c1 (centres unmarked)
OUTPUT UNIT: µM
Kb: 2.95
--
MOLECULE: CN(C)Cc1nc2cc(CSCCNc3ncc(Cc4cccnc4)c(=O)[nH]3)ccc2[nH]1
OUTPUT UNIT: µM
Kb: 1.23
--
MOLECULE: CN(C)Cc1nc2cc(CSCCNc3ncc(CN(C)C)c(=O)[nH]3)ccc2[nH]1
OUTPUT UNIT: µM
Kb: 0.631
--
MOLECULE: O=c1[nH]c(NCCCOc2ccc3[nH]c(CN4CCCCC4)nc3c2)ncc1Cc1cccnc1
OUTPUT UNIT: µM
Kb: 9.55
--
MOLECULE: C#CCNc1n[s+]([O-])nc1NCCSCc1ccc2[nH]c(CN(C)C)nc2c1 (centres unmarked)
OUTPUT UNIT: µM
Kb: 0.759
--
MOLECULE: CNC(=C[N+](=O)[O-])NCCSCc1ccc2[nH]c(CN(C)C)nc2c1
OUTPUT UNIT: µM
Kb: 1.45
--
MOLECULE: CCNc1n[s+]([O-])nc1NCCSCc1ccc2[nH]c(CN(C)C)nc2c1 (centres unmarked)
OUTPUT UNIT: µM
Kb: 1.45

----------
- Tested on: acid secretion in pylorus-ligated rats
- RUN DESCRIPTION: Anti-secretory effect (histamine-stimulated gastric acid secretion) in pylorus-ligated rat
- Assay type: in vivo, male wistar rats
- SETUP CONDITIONS: Rattus norvegicus, sc, 3 h; 2 mg/kg s.c., 30 min before histamine 3 mg/kg s.c.; n=5; * significant at 5%, ** at 1% vs control; read-out: inhibitory effect of acid secretion (%) at 2 mg/kg s.c.
Is inhibition in vivo at 2 mg/kg at least 90%? Then Criterion met. If not, Criterion not met.

MOLECULE: CNC(=NC#N)NCCSCc1ccc2[nH]c(CN(C)C)nc2c1 [Example 35]
CLASS LABEL: Criterion not met
//
MOLECULE: CN(C)Cc1nc2cc(CSCCNc3n[s+]([O-])nc3N)ccc2[nH]1 (centres unmarked) [Example 103]
CLASS LABEL: Criterion met
//
MOLECULE: CN(C)Cc1nc2cc(CSCCNC3=NS(=O)(=O)N=C3N)ccc2[nH]1 [Example 104]
CLASS LABEL: Criterion met
//
MOLECULE: O=c1[nH]c(NCCCOc2ccc3[nH]c(CN4CCCC4)nc3c2)ncc1Cc1ccc2c(c1)OCO2 [Example 63]
CLASS LABEL: Criterion not met
//
MOLECULE: CNC(=C[N+](=O)[O-])NCCSCc1ccc2[nH]c(CN(C)C)nc2c1 [Example 42]
CLASS LABEL: Criterion met
